Consider the following compounds; for each one, report its Percent Effect.
- targetSystem: Ubiquitin-activating enzyme e1, putative (Leishmania donovani (strain BPK282A1)) (UniProt E9BSI1)
- Sequence (whole entry): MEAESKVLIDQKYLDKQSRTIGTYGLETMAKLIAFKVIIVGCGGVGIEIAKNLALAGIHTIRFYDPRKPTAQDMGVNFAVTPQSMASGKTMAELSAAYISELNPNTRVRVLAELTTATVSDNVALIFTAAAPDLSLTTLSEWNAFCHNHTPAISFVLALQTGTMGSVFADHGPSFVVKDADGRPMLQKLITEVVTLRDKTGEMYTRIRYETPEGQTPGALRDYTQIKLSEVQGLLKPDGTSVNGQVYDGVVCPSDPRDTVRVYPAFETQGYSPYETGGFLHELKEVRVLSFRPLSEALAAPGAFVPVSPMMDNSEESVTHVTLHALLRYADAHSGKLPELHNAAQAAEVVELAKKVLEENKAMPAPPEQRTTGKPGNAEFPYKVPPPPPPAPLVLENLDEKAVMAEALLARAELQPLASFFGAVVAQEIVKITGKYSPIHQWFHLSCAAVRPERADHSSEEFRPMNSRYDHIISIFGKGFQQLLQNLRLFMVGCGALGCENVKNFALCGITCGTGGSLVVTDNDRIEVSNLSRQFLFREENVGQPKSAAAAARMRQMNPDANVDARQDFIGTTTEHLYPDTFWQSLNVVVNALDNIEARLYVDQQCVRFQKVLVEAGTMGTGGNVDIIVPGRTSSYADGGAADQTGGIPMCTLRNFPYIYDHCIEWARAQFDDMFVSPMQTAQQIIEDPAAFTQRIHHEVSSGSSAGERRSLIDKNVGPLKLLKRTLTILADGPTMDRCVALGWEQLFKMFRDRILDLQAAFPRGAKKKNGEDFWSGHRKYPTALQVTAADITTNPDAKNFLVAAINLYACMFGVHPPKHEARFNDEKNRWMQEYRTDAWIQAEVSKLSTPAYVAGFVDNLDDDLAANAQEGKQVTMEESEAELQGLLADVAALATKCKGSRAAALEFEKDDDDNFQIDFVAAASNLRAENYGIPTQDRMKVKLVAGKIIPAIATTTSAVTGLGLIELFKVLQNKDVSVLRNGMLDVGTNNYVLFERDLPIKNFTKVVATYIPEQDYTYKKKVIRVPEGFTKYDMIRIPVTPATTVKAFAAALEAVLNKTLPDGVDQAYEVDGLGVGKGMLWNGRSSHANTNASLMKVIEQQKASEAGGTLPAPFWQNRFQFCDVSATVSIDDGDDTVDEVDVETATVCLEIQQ
- experimentSummary: Leishmania donovani Ubiquitin Activating Enzyme (LdE1)
- Type: functional
- Parameters: scale not given: direction of the effect not stated beside the values
- experimentalSetup: 30 µM
Results with a measured potency or affinity are listed apart.
# value in %; strip the unit string

# return recorded Percent Effect for input "Cn1ccc(CN2CCC(NC(=O)NC3CCCCC3)CC2)cc1=O"
10.3

# return recorded Percent Effect for input "FC(F)(F)c1nc(NC2CCCC2)c2ccccc2n1"
-2.7

# return recorded Percent Effect for input CC(C)(C)n1ncc2c1NC(=O)CC2c1ccsc1 (stereo not drawn)
2.7

# return recorded Percent Effect for input "CC(C)N1CCO[C@H]2CN(C(=O)c3ccoc3)C[C@H]21"
3.9

# return recorded Percent Effect for input COc1c(C2CCCN2C(=O)c2cncnc2C)c(C)nn1C (stereo not drawn)
20.8

# return recorded Percent Effect for input COCCN1CCN(Cc2cccc(OCC(N)=O)c2)CC1C (stereo not drawn)
0

# return recorded Percent Effect for input Cc1cc(C(=O)NC2CCc3nc(C)cn3C2)[nH]n1 (stereo not drawn)
2.67

# return recorded Percent Effect for input "Cc1noc(C2CCN(C(=O)CCc3nccs3)CC2)n1"
17.9

# return recorded Percent Effect for input "CCCc1nc(C)c(C(=O)NCCN2CCN(CC)CC2)s1"
0

# return recorded Percent Effect for input CS(=O)(=O)NCC1CCCN(C(=O)COCC(F)(F)F)C1 (stereo not drawn)
15.4

# return recorded Percent Effect for input "CC(=O)N1[C@@H](C(=O)NCC2CC2)C[C@@H]2CN(Cc3ccco3)C[C@@H]21"
22.1

# return recorded Percent Effect for input "COc1ncccc1CNC(=O)c1cccc(C)n1"
23.1

# return recorded Percent Effect for input CCC(O)CN1CCN(C(=O)c2sccc2OC)CC1 (stereo not drawn)
7.79

# return recorded Percent Effect for input "c1csc(-c2nc(CN3CCn4c(nnc4C4CC4)C3)co2)c1"
5.33

# return recorded Percent Effect for input CCOC1COC2(CCN(Cc3cccc(F)c3)CC2)C1 (stereo not drawn)
14.3

# return recorded Percent Effect for input CC(=O)NC1CCCN(C(=O)NCc2cccnc2-n2cccn2)C1 (stereo not drawn)
10.7

# return recorded Percent Effect for input "CCc1nc(CN2CCN(C(=O)C3CCCCC3)CC2)cs1"
17.9

# return recorded Percent Effect for input O=C1CC(c2ccccc2)C2(CCN(Cc3ccccn3)CC2)N1 (stereo not drawn)
22.1

# return recorded Percent Effect for input "CCC(=O)N1CCC(O)(c2ncc(OC)nc2OC)CC1"
9.33

# return recorded Percent Effect for input CCn1cc(CN2CCCC(c3[nH]ncc3S(C)(=O)=O)C2)cn1 (stereo not drawn)
14.7

# return recorded Percent Effect for input "O=C(NCC(=O)N1CCCCC1)c1ccoc1"
13

# return recorded Percent Effect for input "Cc1cc2c(cc1C(=O)N1CC[C@H](CO)[C@@H](O)C1)OCCO2"
2.7

# return recorded Percent Effect for input "CCc1cc(C(F)(F)F)c2c(C)nn(CC(=O)O)c2n1"
9.33

# return recorded Percent Effect for input Cc1ccc(Cl)cc1N1CCC(CNC(=O)CC(F)(F)F)C1 (stereo not drawn)
-2.56

# return recorded Percent Effect for input NC[C@H]1CC[C@H](C(NC(=O)c2ccccn2)c2ccccn2)CC1 (stereo partly drawn)
14.7

# return recorded Percent Effect for input CC(C)NC(=O)CC1COC2(CCN(Cc3cccs3)CC2)C1 (stereo not drawn)
16.9

# return recorded Percent Effect for input "CC(C)c1nnc2n1CCN(C(=O)c1ccc3cc[nH]c3c1)C2"
10.7

# return recorded Percent Effect for input "COc1cc(CNCc2ccc(NC(=O)NC(C)C)cc2)cc(OC)c1"
15.6

# return recorded Percent Effect for input CN(Cc1ccccc1)CC(O)Cn1cnc2ccccc2c1=O (stereo not drawn)
2.56

# return recorded Percent Effect for input Cc1nn(-c2ccccc2)c(C)c1CNC1CCc2ncnn2C1 (stereo not drawn)
10.3

# return recorded Percent Effect for input CC(C)C(NC(=O)N1CCN(c2ccc(Cl)cc2)CC1)C(=O)NC1CC1 (stereo not drawn)
5.41

# return recorded Percent Effect for input CCOCC1CC2(CCN(Cc3ccccn3)CC2)CO1 (stereo not drawn)
1.3

# return recorded Percent Effect for input CCc1nc(CC(=O)N2CCCC2Cn2cccn2)cs1 (stereo not drawn)
2.67

# return recorded Percent Effect for input "Fc1ccc(-c2nnc(CN3CCn4c(nnc4C4CC4)C3)o2)cc1"
-18.7

# return recorded Percent Effect for input "COc1ccc(CN2CCC[C@@H]3CN(C(=O)c4ccco4)C[C@@H]32)cc1"
11.7

# return recorded Percent Effect for input "Cc1ccccc1CC(=O)N(C)C1CCCC1"
13.3

# return recorded Percent Effect for input "Cc1cc(N2CCC(NC(=O)C3CC3)CC2)nc(-c2ccncc2)n1"
23.4

# return recorded Percent Effect for input "Cc1cccc(CN2C(=O)CCC23CCN(Cc2cccn2C)CC3)n1"
27.3

# return recorded Percent Effect for input "COC(=O)COc1cccc(NS(=O)(=O)c2cc(C(=O)O)cs2)c1"
17.9

# return recorded Percent Effect for input "CCN(C)Cc1cnc(S(=O)(=O)CC)n1CCOC"
0

# return recorded Percent Effect for input OC(CN1CCOCC1)CN1CCc2c(ncn2C2CC2)C1 (stereo not drawn)
26.7

# return recorded Percent Effect for input FC(F)(F)Cn1ccnc1CN1CCCC1c1noc(C2CC2)n1 (stereo not drawn)
10.7

# return recorded Percent Effect for input Cc1cc(NC(=O)C(C)N2CCCN(c3nccs3)CC2)on1 (stereo not drawn)
7.69

# return recorded Percent Effect for input COCc1nc(C(=O)N2CCCC(n3cccn3)C2)cs1 (stereo not drawn)
13

# return recorded Percent Effect for input "COc1cccc(CNc2cnn(C)c(=O)c2Cl)c1"
0

# return recorded Percent Effect for input "CC(=O)N1C[C@@H](c2ccsc2)[C@@H]2CN(Cc3ccccc3)CC[C@@H]21"
12

# return recorded Percent Effect for input "CNC(=O)[C@@H]1C[C@H]2CN(Cc3ccco3)C[C@H]2N1C"
-27.3

# return recorded Percent Effect for input "CC(=O)NCCC(=O)NCc1cccnc1-n1cnc2ccccc21"
0
